Biological target: T1, human Complement Factor D (CFD), purified from human serum (human, UniProt P00746 26-253)
T1 construct: serum purified (CompTech A136); also called serum purified CFD; hCFD-Comptech
T1 sequence (P00746 26-253): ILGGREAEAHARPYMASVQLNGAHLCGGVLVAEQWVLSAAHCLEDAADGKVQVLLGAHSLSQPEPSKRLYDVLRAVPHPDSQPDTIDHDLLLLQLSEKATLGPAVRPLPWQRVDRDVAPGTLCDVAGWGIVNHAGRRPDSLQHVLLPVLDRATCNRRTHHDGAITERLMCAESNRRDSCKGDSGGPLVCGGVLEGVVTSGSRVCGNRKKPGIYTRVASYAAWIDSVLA
Experiment: SPR MX96, mAbs amine-coupled, CFD injected
MEASURED_QUANTITY: Kd (nM)
# output: bare number, implied unit nM

# Kd lookup, item KCD077 (antibody, V domains shown) VH: EVQLQQSGAELVRPGALVKLSCKASGFNIKDYYMHWVKQRPEQGLEWIGWIDPENGHTIYDPRFQGKATITADTSSNTAYLQLSSLTSEDTAVYYCSRGLLGFAYWGQGTLVTVSA VL: DIVMTQSQKFMSTSVGDRVSVTCKASQNVGTNVAWYQQKPGQSPKALIYTASYRYSGVPDRFTGSGSGTDFTLTISNVQSEDLAEYFCQQYNSYPHMYTFGGGTKLEIK
16.9

Then KCD110 (antibody, V domains shown) VH: EVQLQQSGPELVKPGASVKISCKASGYSFTGYYMHWVKQSHGNILDWIGYIDPDNGVSSKNQKFTGKATVTADKSSSTAYMELRSLTSEDSAVYYCAGYYGSSWYWYFDVWGTGTTVTVSS VL: QIVLSQSPAILSASPGEKVTMTCRASSSVSYMHWYQQKPGSSPKPWIYATSNLASGVPARFSGSGSGTSYSLTISRVEAEDAATYYCQQWSSNPYTFGGGTKLEIK ?
3.71

Now consider KCD039 (antibody, V domains shown) VH: EVQLQQSGPEMVKPGASMKISCKASGYSFADYTLNWVKQSHGKSLEWIGLINPYNGGTSYNQKFMGKATLTVDKSSSTAYMELLSLTSEDSAVYYCTRWGTYSHNYDYAMDYWGQGTSVTVSS VL: DVVMTQTPLSLSVSLGDQASISCRSSQSLVHSNGNTYLYWYLQKPGQSPKLLIYKVSNRFSGITDRFSGSGSGTDFTLKISRVEAEDLGVYFCSQSTHVPPFTFGSGTKLEIK .
52.5
